Test system: Nuclear hormone receptor DAF-12 (Heterodera glycines), GAL4 fusion
ASSAY_EXPLANATION: H. glycines DAF-12 receptor agonists, primary screen, cell-based, luminescence, HEK293, GAL4 fusion, UAS-luciferase (AID 687014);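 further: 0% = DMSO wells and 100% = sodium butyrate wells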
CONDITION_DETAILS: HEK293 GAL4-hgDAF12 UAS-luciferase reporter, agonist luminescence; at 6.8 µM; stronger effect = higher value; normalized to butyrate control
Screen size: about 370,000 compounds; about 6,800 (1.8%) were called active. Many of the other results were omitted from the sample, so actives are more common in it than they were.
Reported activation values follow for various compounds
Kindly answer with a numeric value in %, unit omitted.

Worked examples, 4 compounds total:
COMPOUND	ASSAYED_TARGET	activation (%)
Cc1ccc(COc2ccc(/C=N/NC(=O)CN3CCCCC3)cc2)cc1	Nuclear hormone receptor DAF-12 (Heterodera glycines), GAL4 fusion	10.7
O=C(CN1CCSCC1)N/N=C/c1ccc(Cl)cc1	Nuclear hormone receptor DAF-12 (Heterodera glycines), GAL4 fusion	-0.9
CC(CO)N1CCS(=O)(=O)CC1 (stereo unspecified)	Nuclear hormone receptor DAF-12 (Heterodera glycines), GAL4 fusion	0.38
C[C@@H]1ON(C)[C@H]2C[C@H]3c4cc(N5CCOCC5)ccc4CCN3C[C@@H]12	Nuclear hormone receptor DAF-12 (Heterodera glycines), GAL4 fusion	-4.54

Would you kindly share the measured activation for Cc1ccc(NC(=O)Nc2cc(C)nn2-c2ccccc2)cc1 ? 0.6

Would you kindly share the measured activation for C/C(=N\Nc1ccc(Cl)nn1)c1ccccc1O ? 1.05

Would you kindly share the measured activation for CCOC(=O)C1CCN(C(=O)C(C)(C)NC(=O)Nc2ccccc2Cl)CC1 ? 0.66

* * *

Reported activation values follow for various molecules
Tested on: Nuclear hormone receptor DAF-12 (Heterodera glycines), GAL4 fusion
ASSAY_EXPLANATION: H. glycines DAF-12 receptor agonists, primary screen, cell-based, luminescence, HEK293, GAL4 fusion, UAS-luciferase (AID 687014);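 further: 0% = DMSO wells and 100% = sodium butyrate wells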
CONDITION_DETAILS: HEK293 GAL4-hgDAF12 UAS-luciferase reporter, agonist luminescence; at 6.8 µM; stronger effect = higher value; normalized to butyrate control
About 6,800 (1.8%) of roughly 370,000 compounds were called active. What follows is part of a selection rich in actives, with near analogues and random picks from the rest.
Kindly answer with a numeric value in %, unit omitted.

Would you kindly share the measured activation for c1ccc(-c2cc(-c3ccccc3)[nH]n2)cc1 ? 12.2

Would you kindly share the measured activation for CCOC(=O)c1cc2c(nc1NC(=S)Nc1ccccc1)CC(C)(CC)OC2 (stereo unspecified) ? -0.06

Would you kindly share the measured activation for Cn1cnc(C(F)(F)F)c1-c1ccc([N+](=O)[O-])cc1 ? 0.97

Would you kindly share the measured activation for CN(C(=O)COC(=O)c1cc(=O)[nH]c2ccccc12)C1CCCCC1 ? 6.7

* * *

Reported activation values follow for various compounds
System: Nuclear hormone receptor DAF-12 (Heterodera glycines), GAL4 fusion
ASSAY_EXPLANATION: H. glycines DAF-12 receptor agonists, primary screen, cell-based, luminescence, HEK293, GAL4 fusion, UAS-luciferase (AID 687014);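 further: 0% = DMSO wells and 100% = sodium butyrate wells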
CONDITION_DETAILS: HEK293 GAL4-hgDAF12 UAS-luciferase reporter, agonist luminescence; at 6.8 µM; stronger effect = higher value; normalized to butyrate control
Screen size: about 370,000 compounds; about 6,800 (1.8%) were called active. The list comes from a sample in which actives are over-represented; it also holds close analogues and randomly drawn compounds.
Kindly answer with a numeric value in %, unit omitted.

Worked examples, 5 compounds total:
COMPOUND	UNIT_LABEL	activation
Cc1cc(N)n2nc(-c3ccc(C(C)(C)C)cc3)cc2n1	%	20
O=C(NC1CCCCN(Cc2cccc(C(F)(F)F)c2)C1=O)c1ccccc1I (stereo not given)	%	-2.42
CCOC(=O)CNC(=O)CSc1ncccc1-c1nc2ccccc2[nH]1	%	-0.67
CCN(CC)S(=O)(=O)c1cc(C(=O)Nc2ccccn2)ccc1C	%	12.3
CN[C@H]1C[C@H]2c3[nH]c4c(-c5ccccc5)cccc4c3CCN2C(=O)[C@H]1[C@H](C)O	%	-0.57

Would you kindly share the measured activation for Cc1ccc(-c2nnc(-n3nnc4ccccc43)c3ccccc23)cc1 ? 0.07

Would you kindly share the measured activation for FC(F)(F)c1cccc(NC(=S)OC2CCC23CCC(c2ccccc2)CC3)c1 (stereo not given) ? 2.72

Would you kindly share the measured activation for COC(=O)[C@]12C[C@H](CC(=O)N3CCOCC3)C(=O)N(Cc3ccc(Cl)cc3Cl)C1=C[C@H](C(C)C)O[C@@H]2C1CC1 ? -3.62

Would you kindly share the measured activation for COC(=O)C1=C(C)N(Cc2ccccc2C(F)(F)F)C(=NCC2CC2)NC1c1cccc(Cl)c1 (stereo not given) ? 4.82

Would you kindly share the measured activation for CCCCCn1nnnc1-c1nc2cc3ccccc3cc2[nH]c1=O ? 0.65

Would you kindly share the measured activation for CCOC(=O)C1=CN(Cc2ccc(Br)cc2)S(=O)(=O)N(C)C1C (stereo not given) ? 0.23

Would you kindly share the measured activation for CC(C)N1CCCCC(NC(=O)c2ccc3ccccc3c2)C1=O (stereo not given) ? -0.24

Would you kindly share the measured activation for COC(=O)[C@]12C[C@H](CC(=O)NCc3ccccc3)C(=O)N(Cc3ccccc3)C1=C[C@H](COCc1ccccc1)O[C@@H]2C ? -0.41

Would you kindly share the measured activation for COC(=O)Nc1nc2ccc(C(=O)C3CC3)cc2[nH]1 ? 6.35

Would you kindly share the measured activation for COc1ccc(NC(=O)N(C)C[C@@H]2OCCCC[C@@H](C)Oc3ccc(NC(=O)NC4CCCCC4)cc3C(=O)N([C@H](C)CO)C[C@@H]2C)cc1 ? 2.86

Would you kindly share the measured activation for COc1cccc(N(C(=O)C2COc3ccccc3O2)C(C(=O)NC2CCCCC2)c2ccc(O)cc2)c1 (stereo not given) ? 0.49

Would you kindly share the measured activation for COc1ccc(C2CC=C(C(=O)O)C(c3ccccc3F)N2S(=O)(=O)c2ccc(C)cc2)cc1OC (stereo not given) ? 3.93

Would you kindly share the measured activation for NC(=O)c1ncn([C@@H]2O[C@H](C(=O)O)[C@@H](O)[C@H]2O)n1 ? 1.3

Would you kindly share the measured activation for Cc1ccc(-c2nc3ccccc3[nH]2)cc1N ? 12.8

Would you kindly share the measured activation for Cc1ccc(-c2nc3ccccc3[nH]c2=O)cc1 ? 10.9

* * *

System: Nuclear hormone receptor DAF-12 (Heterodera glycines), GAL4 fusion
ASSAY_EXPLANATION: H. glycines DAF-12 receptor agonists, primary screen, cell-based, luminescence, HEK293, GAL4 fusion, UAS-luciferase (AID 687014);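 further: 0% = DMSO wells and 100% = sodium butyrate wells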
CONDITION_DETAILS: HEK293 GAL4-hgDAF12 UAS-luciferase reporter, agonist luminescence; at 6.8 µM; normalized to butyrate control
Screen size: about 370,000 compounds; about 6,800 (1.8%) were called active.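 The calls were made as follows: active = activation above a cutoff set at the mean of all screened compounds plus 3 SD (cut at about 10% in these data); inactive = the rest.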 Many of the other results were omitted from the sample, so actives are more common in it than they were.
Return exactly one item of true for active, false for inactive

These recorded examples may help you get a feel for the data.
COMPOUND	ASSAYED_TARGET	CLASS_ASSIGNMENT
CCOc1ccc(NC(=O)N(CCC(C)C)C(C)c2ccco2)cc1 (configuration not stated)	Nuclear hormone receptor DAF-12 (Heterodera glycines), GAL4 fusion	false
CCCCCCc1cc2cc(-c3nnc(-c4cccc(OC)c4)o3)c(=O)oc2cc1O	Nuclear hormone receptor DAF-12 (Heterodera glycines), GAL4 fusion	false
O=C(Nc1ccccc1Cl)c1ccc2nsnc2c1	Nuclear hormone receptor DAF-12 (Heterodera glycines), GAL4 fusion	true
C=CCN(C(=O)[C@@H](CCCC)[C@@H](O)c1ccc(Cl)cc1)c1ccccc1	Nuclear hormone receptor DAF-12 (Heterodera glycines), GAL4 fusion	false
Cc1cc2nc(-c3ccc(NC(=O)c4cccnc4)cc3)oc2cc1C	Nuclear hormone receptor DAF-12 (Heterodera glycines), GAL4 fusion	true

Fill in: this test's call for CC(CNC(=O)c1ccc(Br)o1)NC(=O)c1ccc(Br)o1 (configuration not stated) is ___ false

Fill in: this test's call for O=c1[nH]c(-c2ccccc2)cn1C1CCN(Cc2ccc(-c3nc4ccc(F)cc4nc3-c3ccccc3)cc2)CC1 is ___ false

Fill in: this test's call for CC(=O)Nc1ccc(-c2nc3ccccc3o2)cc1 is ___ true

Fill in: this test's call for CC(=O)Nc1ccc(S(=O)(=O)NC2Cc3ccccc3C2)cc1 is ___ false

Fill in: this test's call for CCN(CC)C(=O)CSc1nc2ccccc2o1 is ___ false

Fill in: this test's call for CN(CCNC(=O)c1cc2c(-c3ccccc3F)nn(C)c2s1)C1CCCCC1 is ___ false

Fill in: this test's call for COC(=O)C[C@H]1C=C[C@@H](NS(=O)(=O)c2ccc(C)cc2)[C@@H](CO)O1 is ___ false

Fill in: this test's call for O=C(Nc1ccccc1Cl)/C(Cl)=C(\Cl)S(=O)c1ccccc1 (configuration not stated) is ___ false

Fill in: this test's call for CCCCOc1ccc(-c2nnc(-c3ccco3)o2)cc1 is ___ true

Fill in: this test's call for COc1ccccc1C(=O)CSc1nnc(-c2ccccn2)n1-c1ccccc1 is ___ false

Fill in: this test's call for C[C@H]1[C@H](c2ccccc2)Oc2cc(Br)ccc2S(=O)(=O)N1Cc1cccc(F)c1 is ___ false

Fill in: this test's call for COC(=O)[C@]12C[C@H](CC(=O)NCc3ccc(C)o3)C(=O)N(CCC3=CCCCC3)C1=C[C@H](C(C)(C)C)O[C@@H]2C is ___ false

Fill in: this test's call for COC(=O)Cc1nnn2c1[C@H](C)[C@H](c1ccccc1[N+](=O)[O-])OCC2 is ___ false

Fill in: this test's call for CCCCSc1nnc(-c2ccc(C)cc2)o1 is ___ false

Fill in: this test's call for CCOc1ccc(-c2nnc(-c3ccco3)o2)cc1 is ___ true

Fill in: this test's call for Cc1ccc(-n2nc3cc(C)c(NC(=O)c4cccnc4)cc3n2)cc1 is ___ false

Fill in: this test's call for C/C(=N/NC(=O)c1ccc(Br)o1)c1ccc(C)o1 is ___ true
